- System: SF-539 CNS
- protocol: NCI tumour cell line growth inhibition, 48 h
Where a SMILES comes first, the peptide text is derived from it. [ ]: non-standard residue; d: D form. The star is where a group is joined. Bn2Val = CC(C)[C@@H](C(=O)*)N(Cc1ccccc1)Cc1ccccc1; NMeV = CN[C@H](C(=O)O)C(C)C; X29 = COc1ccc(CN*)c(OC)c1; dNMeA = CN[C@H](C)C(=O)O
Classification field: Fulfilled = TGI at or over 30 µM; Not fulfilled = TGI under 30 µM.

COc1cccc(CN(C)c2ccc(CO)c(Cl)c2)c1 | Fulfilled
CN(C)c1ccc(/C=C2\N=C(c3ccccc3)N(c3cc(C(F)(F)F)ccc3Cl)C2=O)cc1 | Fulfilled

stdin: Given c1cc(-c2nnc(SSc3ncnc4nc[nH]c34)o2)ccn1 , state whether its TGI is at least 30 µM.
stdout: Fulfilled

stdin: Next: O=C1Nc2cc([N+](=O)[O-])c(Br)cc2C1=O
stdout: Fulfilled

stdin: Next: COC(=O)CC(C(C(=O)OCc1ccccc1)C(C)O)N1C(=O)OC(c2ccccc2)C1c1ccccc1 (centres undefined)
stdout: Fulfilled

stdin: Next: COc1ccc(-c2cc(C(=O)Nc3cc(C(F)(F)F)cc(C(F)(F)F)c3)c3ccccc3n2)cc1
stdout: Not fulfilled

stdin: Next: CCN1CCN(c2cc(C)nc(N(CCCNc3ccnc4cc(Cl)ccc34)Cc3ccc4c(c3)OCO4)n2)CC1
stdout: Not fulfilled

stdin: Next: COc1ccc(CNC(=O)[C@@H]2CCCN2C(=O)[C@@H](C)N(C)C(=O)[C@H](C(C)C)N(C)C(=O)[C@@H](NC(=O)[C@H](C(C)C)N(Cc2ccccc2)Cc2ccccc2)C(C)C)c(OC)c1 (Bn2Val-V[NMeV][dNMeA]P-X29)
stdout: Not fulfilled

stdin: Next: CCC(COC(=O)CC[C@@H](NC(=O)C(C)NC(=O)C(C)OC1C(O)C(CO)OC(OCc2ccccc2)C1NC(C)=O)C(N)=O)NC1c2ccccc2Nc2cccc([N+](=O)[O-])c21 (some centres undefined)
stdout: Fulfilled

stdin: Next: Cc1ncc(C(=O)Nc2ccc(CN3CCN(C)CC3)c(C(F)(F)F)c2)cc1C#Cc1ccc(N)nc1
stdout: Not fulfilled

stdin: Next: CC(=O)NC1=C(NCCCl)C(=O)c2ccccc2C1=O
stdout: Fulfilled

====

- Test system: UO-31 renal
- protocol: NCI tumour cell line growth inhibition, 48 h
# Lookup of reported TGI keyed by entry

C=C1[C@@](C)([C@@H]2CCCS2)[C@H]2C(C)=C[C@]1(C)n1c(=O)n(-c3ccccc3)c(=O)n12 | > 100 µM
O=CC(O)C(O)C(O)C1CNC(=S)O1 (centres undefined) | > 100 µM
O=C1C(=O)N(c2ccc(Cl)cc2)C(=O)C(=O)C1c1nc2ccccc2s1 | > 100 µM
COCC1OC(S(=O)(=O)c2ccccc2)C(O)C(OC)C1OC (centres undefined) | > 100 µM
COc1cccc(CN(C)c2ccc(CO)c(Cl)c2)c1 | > 83.7 µM

stdin: Return TGI measured with UO-31 renal given this molecule: Cc1cc(Nc2nc(C(=O)Nc3ccccc3)nc3ccccc23)n[nH]1
stdout: > 25 µM

stdin: Next: COC(=O)CC(C(C(=O)OCc1ccccc1)C(C)O)N1C(=O)OC(c2ccccc2)C1c1ccccc1 (centres undefined)
stdout: > 100 µM

stdin: Next: COC(=O)C12CC(NC(=O)c3csc([C@@H](C[C@H](C(C)C)N(C)C(=O)[C@@H](NC(=O)[C@H]4CCCCN4C)C4CC4)OC(C)=O)n3)(C1)C2
stdout: > 16.7 µM

stdin: Next: O=C1C[C@@H]2[C@@H](CCC23CC3)N1
stdout: > 100 µM

stdin: Next: Clc1cccc(N2CCN(CCCN3CCc4c([nH]c5ccccc45)C3c3cccnc3)CC2)c1 (centres undefined)
stdout: 18.5 µM

stdin: Next: O=c1c2ccccc2nc(-c2ccccc2)n1NC(=S)Nc1ccc(Cl)cc1
stdout: > 100 µM

stdin: Next: [O-]c1ccccc1C=Nc1ccc2c(c1)CCC2.[O-]c1ccccc1C=Nc1ccc2c(c1)CCC2.[O]=[U+2]=[O]
stdout: > 100 µM

stdin: Next: CCc1cccc(C)c1N1C(=O)C(=O)C(c2nc3ccccc3o2)C(=O)C1=O
stdout: > 100 µM

stdin: Next: CCOC(=O)c1c(C)n(Cc2ccc(Cl)cc2Cl)c2c1cc1oc(=O)c(=O)n3cnc2c13
stdout: 31.8 µM
